system: Plasmodium berghei; assay: Screen against P. berghei liver stage (PbLuc), transformed with Luciferase, at 2uM; format: functional, HepG2; settings: tested at 2 uM
Hit rate of the full screen: of about 68,000 compounds, about 2,700 (4%) showed an effect of 50% or more. This excerpt belongs to a sample that is enriched for strong results.
readout_type: INHIBITION (%)
Give the quantity in %, number only.

given_smiles: N[C@H]1CN(C(=O)Cc2cc(F)cc(Cl)c2)C[C@@H]1C1CC1
INHIBITION [%]: 55.39
//
given_smiles: N[C@H]1CN(C(=O)Cc2ccc(CO)cc2)C[C@@H]1C1CC1
INHIBITION [%]: 39.97
//
given_smiles: N[C@H]1CN(C(=O)Cc2ccc(Cl)c(Cl)c2)C[C@@H]1C1CC1
INHIBITION [%]: 4.72
//
given_smiles: CCC(=O)CNC(=O)CCn1nc2ccccn2c1=O
INHIBITION [%]: -12.95
//
given_smiles: Cc1cc(Cl)ccc1C(=O)N1C[C@H](C2CC2)[C@@H](N)C1
INHIBITION [%]: 60.42

Form field: reported INHIBITION of "N[C@H]1CN(C(=O)c2ccc(Cl)cc2F)C[C@@H]1C1CC1" 19.54
